test system: RPMI-8226 (Plasma Cell Myeloma); test: Bliss excess, mean over the matrix (fraction); higher = more synergy;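 also: after 72 h of two-drug dosing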
metric: Bliss excess
One number for each entry.

Worked examples, 2 molecules total:
>  <molecule>
C=CCn1c(=O)c2cnc(Nc3ccc(N4CCN(C)CC4)cc3)nc2n1-c1cccc(C(C)(C)O)n1 [AZD1775] + C1CN(CCC1(C(=O)N[C@@H](CCO)C2=CC=C(C=C2)Cl)N)C3=NC=NC4=C3C=CN4 [Capivasertib] (first compound max 3 µM, partner max 3 µM)

>  <measured-target>
RPMI-8226 (Plasma Cell Myeloma);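 also: after 72 h of two-drug dosing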

>  <measured-result>
0.0216

$$$$
>  <molecule>
CN(C)CCCOc1ccc(-c2ccc3ncc4c(c3c2)n(C2CCOCC2)c(=O)n4C)cn1 [AZD0156] + C=CCn1c(=O)c2cnc(Nc3ccc(N4CCN(C)CC4)cc3)nc2n1-c1cccc(C(C)(C)O)n1 [AZD1775] (first compound max 1 µM, partner max 1 µM)

>  <measured-target>
RPMI-8226 (Plasma Cell Myeloma);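 also: after 72 h of two-drug dosing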

>  <measured-result>
-0.0017

$$$$

Documented Bliss excess of Cc1c2c(nn1C)CSCc1cc(n(C)n1)CSc1cc(c3ccccc3c1)OCCCc1c(C(=O)O)n(C)c3c-2c(Cl)ccc13 [AZD5991] + C=CCn1c(=O)c2cnc(Nc3ccc(N4CCN(C)CC4)cc3)nc2n1-c1cccc(C(C)(C)O)n1 [AZD1775] (first compound max 1 µM, partner max 1 µM) : -0.0006
